Values compiled from ChEMBL document CHEMBL1135295.

test system: HCT-116; test: Compound was tested in vitro for cytotoxicity against HCT116, human colon cancer cells (taxol-sensitive) at a drug concentration producing 50% inhibition of colony formation; details: read-out: ID50 (the source's name)
readout_kind: pIC50
One number for each entry, as −log10 of the molar value.

# compound CC[C@@]1(OC(=O)CCOc2ccccc2)C(=O)OCc2c1cc1n(c2=O)Cc2cc3ccccc3nc2-1 ; its pIC50 = 8.10

Record summary for CC[C@@]1(OC(=O)COc2ccc3c(c2)OCO3)C(=O)OCc2c1cc1n(c2=O)Cc2cc3ccccc3nc2-1 : reported pIC50 = 8.51

Data point: CCc1c2c(nc3ccc(OC(=O)N4CCC(N5CCCCC5)CC4)cc13)-c1cc3c(c(=O)n1C2)COC(=O)[C@]3(O)CC ; pIC50 = 6.27

Others:
Sure, the documented pIC50 for CC[C@@]1(OC(=O)CO[C@@H]2C[C@H](C)CC[C@H]2C(C)C)C(=O)OCc2c1cc1n(c2=O)Cc2cc3ccccc3nc2-1 is 8.44

---

Could you please report measured IC50 for the items listed next?
system: NCI/ADR-RES; experiment: Compound was tested in vitro for cytotoxicity against MCF-7ADR, human breast cancer cells (taxol-resistant) at a drug concentration producing 50% inhibition of colony formation; assay type: functional; details: read-out: ID50 (the source's name)

Sample records with IC50:
Looking up CC(=O)O[C@H]1C(=O)[C@@]2(C)[C@H]([C@H](OC(=O)c3ccccc3)[C@]3(O)C[C@H](OC(=O)[C@H](O)[C@@H](NC(=O)c4ccccc4)c4ccccc4)C(C)=C1C3(C)C)[C@]1(OC(C)=O)CO[C@@H]1C[C@@H]2O , I see its IC50 listed as > 10000 nM

For record CCc1c2c(nc3ccc(OC(=O)N4CCC(N5CCCCC5)CC4)cc13)-c1cc3c(c(=O)n1C2)COC(=O)[C@]3(O)CC the listed IC50 is > 500 nM

Query molecule follows.
The recorded IC50 for CC[C@@]1(OC(=O)CCCCOc2ccc(F)cc2Br)C(=O)OCc2c1cc1n(c2=O)Cc2cc3ccccc3nc2-1 is > 100 nM
